Molecular target: T1, TIGIT on TIGIT-over expressing NFAT-Luc/Jurkat effector cells (GenScript reporter cell line) (UniProt Q495A1 22-244, limits assumed)
T1 sequence (looked up): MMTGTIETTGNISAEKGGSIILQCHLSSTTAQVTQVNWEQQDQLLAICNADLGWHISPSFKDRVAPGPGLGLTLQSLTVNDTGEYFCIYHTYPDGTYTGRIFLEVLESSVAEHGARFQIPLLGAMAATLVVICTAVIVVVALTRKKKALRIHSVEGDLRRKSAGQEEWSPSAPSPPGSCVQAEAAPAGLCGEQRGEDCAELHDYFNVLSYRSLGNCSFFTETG
Assay: cell-based or functional assay
property: Bottom (RLU)

>>> experimentalvalue("TIGIT-94 chimeric antibody (antibody, human IgG1, kappa, V domains shown, Full-length chimeric IgG1 kappa) VH: EVKLVESGGGLVKPGGSLKLSCAASGFTFSTYTMSWVRQTPEKRLEWVATISSGGTYTHYPDSVKGRFTISRDNAKNTLYLQMSSLKSEDTAMYYCTRWFLSLYAMDYWGQGTSVTVSS VL: DIVMTQSTSSLSASLGDRVTISCRASQDINNFLNWYQQKPAGTVDLLIYYTSRLHSGVPSRFSGSGSGTDYSLTISNLDQEDIATYFCQQGNTFPYTFGGGTRLEIKR")
9960
>>> experimentalvalue("TIGIT-18 chimeric antibody (antibody, human IgG1, kappa, V domains shown, Full-length chimeric IgG1 kappa) VH: QVQLQQPGAELVRPGASVKLSCKASGYSFTSYWMNWVKQRPGQGHEWIGMIHLSNSETRLNQNFLDKATLTVDKSSSTVYLQLSSPTSEDSAVYYCARERDYYGSSYFDYWGQGTTLTVSS VL: DIVMTQSPASLVVSLGQRATISCRTSQSVSTSSYSYMHWYQQKPGQPPKLLIKNASNLESGVPARFSASGSGTDFTLNIHPVEEEDAATYYCQHSWEIPRTFGGGTKLEIKR")
10400
>>> experimentalvalue("TIGIT-87 chimeric antibody (antibody, human IgG1, kappa, V domains shown, Full-length chimeric IgG1 kappa) VH: EVKLVESGPELVKPGASMKISCKASGYSFTGYTMNWVKQSHGKNLEWIGLINPYNGGTSYNQKFKGKATLTVDKSSSTAYMELLSLTSEDSAVYYCARYANRFENWFAYWGQGTLVTVSS VL: DIQMTQSPASLSASVGETVTITCRASENIYSYLAWYQQKQGKSPQLLVYNAKTLAEGVPSRFSGSGSGTQFSLKINSLQPEDFGSYYCQHHYGTPWTFGGGTKLEIKR")
9300
>>> experimentalvalue("TIGIT-15 chimeric antibody (antibody, human IgG1, kappa, V domains shown, Full-length chimeric IgG1 kappa) VH: DVQLVESGGGLVQPGGSLKLSCAASGFTFSSYGMSWVRQTPDRRLELVATINNNGGSTYYPDSVKGRFTISRDNARNTLYLQMSSLKSEDTAMYYCATRTGTEILGFDFWGQGTTLTVSS VL: DIVLTQSHKFMSTSLGDRVSITCKASQDVSTAVAWYQQKPGQSPKLLIYWASSRHTGVPDRFTGSRSGPDYTLTISSVQAEDLALYYCQQQYSTPWTFGGGTKLEIKR")
7720
>>> experimentalvalue("TIGIT-6 chimeric antibody (antibody, human IgG1, kappa, V domains shown, also called 6VH + 6VL) VH: QVQLKQSGPELVKPGASVKISCKTSGYTITENTMHWVKQSHGKSLEWIGGINPNNGGTSYNQQFKGKATLTVDKSSSTAYMELRSLTSEDSAVYYCTRSSYYRYDLDYWGQGTTVTVSS VL: DIQMTQSHKFMSTSVGDRVSITCKASQDVKTALAWYQQKPGQSPKLLIYSASYRYTGVPDRFTGSGSGTDFTFTISSVQAEDLAVYYCHQHYTTPWTFGGGTKLEIKR")
10900
>>> experimentalvalue("TIGIT-3 chimeric antibody (antibody, human IgG1, kappa, V domains shown, also called 3VH + 3VL) VH: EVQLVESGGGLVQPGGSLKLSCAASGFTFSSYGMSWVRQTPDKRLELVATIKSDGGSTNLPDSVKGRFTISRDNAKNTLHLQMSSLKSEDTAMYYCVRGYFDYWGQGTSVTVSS VL: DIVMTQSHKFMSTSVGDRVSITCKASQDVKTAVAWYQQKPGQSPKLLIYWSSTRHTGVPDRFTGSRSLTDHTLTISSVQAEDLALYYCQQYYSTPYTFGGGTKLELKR")
11200
>>> experimentalvalue("TIGIT-52 chimeric antibody (antibody, human IgG1, kappa, V domains shown, Full-length chimeric IgG1 kappa) VH: EVQLVESGGGLVEPGGSLTLSCVASGFTFSSFAMSWVRQTPEKRLEWVATISNGGSYTYYPDTVKGRFTISRDNAKNTLFLQMSSLRSEDTAMYYCARPYYGTTYGYYFDFWGQGTTLTVSS VL: QIVLTQSPASLAVSLGQRATISCRASESVDRNGNSFMHWYQQKPGQPPKLLIYLASNLESGVPARFSGSGSRTDFTLTIDPVEADDAATYYCQQNNEDPLTFGAGTKLELKR")
11800
>>> experimentalvalue("Hu1217-2-2 (anti-TIGIT positive control antibody) (antibody, V domains shown) VH: EVQLVESGGGLVQPGGSLRLSCAASGFTFSDYYMYWVRQAPGKGLEWVAYITKGGGSTYYPDSVKGRFTISRDNAKNTLYLQMNSLRAEDTAVYYCARQTNYDFTMDYWGQGTLVTVSS VL: EIVMTQSPATLSVSPGERATLSCKASQDVGTSVAWYQQKPGQAPRLLIYWASARHTGIPARFSGSGSGTEFTLTISSLQSEDFAVYYCQQYSSYPLTFGGGTKVEIK")
10500
>>> experimentalvalue("TIGIT-63 chimeric antibody (antibody, human IgG1, kappa, V domains shown, Full-length chimeric IgG1 kappa) VH: DVQLVESGGGLVQPGGSLSLSCAASGFTFTDYYMNWVRQPPGKALEWLGFIRNKANGYTTEYSASVKGRFTISRDNSQSILYLQMNALRAEDSATYYCARSTAWYFDVWGTGTTLTVSS VL: DIQMTQSPASLSASVGGTVTITCRASEHIYSYLAWYQQKQGKSPQLLVYNAKTLAEGVPSRFSGSGSGTQFSLKINSLQPKDFGSYYCQHHYGNPLTFGAGTKLELKR")
11200

Origin of measurements: patent US20260139048A1
